Each item that follows carries a reported CC50 at 4 days.
# test_method_notes: Determination of cytotoxicity, HepG2 cells, resazurin assay (Experiment 3)
# Format: cell-based
# test_context: human
measured_property: CC50 at 4 days

compound: Cn1cc2c(c1C(=O)Nc1ccc(F)c(C#N)c1)CC[C@H](Cc1ccc(F)cc1)NS2(=N)=O (single isomer, unassigned)
measured_property: CC50 at 4 days
observed: > 30 µM
--
compound: Cn1cc2c(c1C(=O)Nc1ccc(F)c(C#N)c1)C=C[C@H](Cc1ccc(F)cc1)NS2(=N)=O (single isomer, unassigned)
measured_property: CC50 at 4 days
observed: > 30 µM
--
compound: Cn1cc2c(c1C(=O)Nc1ccc(F)c(C#N)c1)C=C[C@H](CC1CC1)NS2(=N)=O (single isomer, unassigned)
measured_property: CC50 at 4 days
observed: > 30 µM
--
compound: COc1ccc(C[C@H]2CCc3c(cn(C)c3C(=O)Nc3ccc(F)c(C#N)c3)S(=N)(=O)N2)cc1 (single isomer, unassigned)
measured_property: CC50 at 4 days
observed: > 30 µM
--
compound: Cn1cc2c(c1C(=O)Nc1ccc(F)c(C#N)c1)CC[C@H](CC1CC1)NS2(=N)=O (single isomer, unassigned)
measured_property: CC50 at 4 days
observed: > 30 µM
--
compound: Cn1cc2c(c1C(=O)Nc1ccc(F)c(C#N)c1)CC[C@H](C1CC1)NS2(=N)=O (single isomer, unassigned)
measured_property: CC50 at 4 days
observed: > 30 µM
--
compound: Cn1cc2c(c1C(=O)Nc1ccc(F)c(C#N)c1)C=C[C@H](C1CC1)NS2(=N)=O (single isomer, unassigned)
measured_property: CC50 at 4 days
observed: > 30 µM
--
compound: COc1ccc(C[C@H]2C=Cc3c(cn(C)c3C(=O)Nc3ccc(F)c(C#N)c3)S(=N)(=O)N2)cc1 (single isomer, unassigned)
measured_property: CC50 at 4 days
observed: > 30 µM
